The reported numbers originate from the supplement of paper PMC11061612.

System: FADU (Head and Neck Carcinoma)
Assay: combination Emax (second highest fraction inhibited in the dose matrix, 72 h); higher = more inhibition; extreme values may be limits of the assay
Each item that follows carries a reported combination Emax.
// response body must contain only the number

# compound, combination Emax
measured = [
    ("CS(=O)(=O)CCNCc1ccc(-c2ccc3ncnc(Nc4ccc(OCc5cccc(F)c5)c(Cl)c4)c3c2)o1 [Lapatinib] + C[C@@H](Oc1cc(-c2cnn(C3CCNCC3)c2)cnc1N)c1c(Cl)ccc(F)c1Cl [Crizotinib] (first compound max 10 µM, 7x7, partner max 10 µM)", 0.931),
]

Could you now look at the following compound, please?
Please report the recorded combination Emax for NC1(C(=O)N[C@@H](CCO)c2ccc(Cl)cc2)CCN(c2ncnc3[nH]ccc23)CC1 [Capivasertib] + COc1nnc2ccc(N3CCC(c4ccc(OCCN5CCN(C)C(=O)[C@H]5C)cc4)CC3)nn12 [AZD5153] (first compound max 10 µM, 7x7, partner max 1 µM) . 0.65
